Attribution: paper PMC5319863

Target: human Izumo1_(22-254), wild type (human, UniProt Q8IYV9-1 22-254)
Sequence (Q8IYV9 22-254): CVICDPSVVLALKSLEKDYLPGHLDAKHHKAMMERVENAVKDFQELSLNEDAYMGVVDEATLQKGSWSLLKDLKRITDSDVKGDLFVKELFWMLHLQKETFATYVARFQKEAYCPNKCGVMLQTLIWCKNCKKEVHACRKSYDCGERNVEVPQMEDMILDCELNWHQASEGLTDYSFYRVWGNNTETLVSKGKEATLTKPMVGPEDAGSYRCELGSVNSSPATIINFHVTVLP
Experiment: BLI
A collection of binders and their measured koff
Your answer should be a plain number; it is taken to be in s⁻¹.

E45A Juno_(20-228) (domain or fragment, human, UniProt A6ND01-1 20-228, looked up, biotinylated with the EZ link sulfo-NHS-LC-biotinylation kit (BLI)) GDELLNICMNAKHHKRVPSPEDKLYAECIPWKDNACCTLTTSWEAHLDVSPLYNFSLFHCGLLMPGCRKHFIQAICFYECSPNLGPWIQPVGSLGWEVAPSGQGERVVNVPLCQEDCEEWWEDCRMSYTCKSNWRGGWDWSQGKNRCPKGAQCLPFSHYFPTPADLCEKTWSNSFKASPERRNSGRCLQKWFEPAQGNPNVAVARLFAS	0.0247

Input line: Returns the measured koff for the input binder. Input: human Juno_(20-228), wild type (domain or fragment, UniProt A6ND01-1 20-228, looked up, biotinylated with the EZ link sulfo-NHS-LC-biotinylation kit (in the BLI assay only)) GDELLNICMNAKHHKRVPSPEDKLYEECIPWKDNACCTLTTSWEAHLDVSPLYNFSLFHCGLLMPGCRKHFIQAICFYECSPNLGPWIQPVGSLGWEVAPSGQGERVVNVPLCQEDCEEWWEDCRMSYTCKSNWRGGWDWSQGKNRCPKGAQCLPFSHYFPTPADLCEKTWSNSFKASPERRNSGRCLQKWFEPAQGNPNVAVARLFAS
Output line: 0.0067
